# assay-procedure: Cell viability of iPSCs (trypan blue)
# Format: cell-based, human
# measurement-context: human, human induced pluripotent stem cells (iPSC line A21); 300 μM, 2 hours
Non-standard residues stand in square brackets, D forms with d. Residues, ends and D or L forms follow the SMILES beside them. *: point of attachment. pY = N[C@@H](Cc1ccc(OP(=O)(O)O)cc1)C(=O)O; NBD = O=[N+]([O-])c1ccc(*)c2nonc12; βAla = NCCC(=O)O

{"compound": "CC(C)C[C@H](NC(=O)CCNc1ccc([N+](=O)[O-])c2nonc12)C(=O)N[C@@H](CC(C)C)C(=O)N[C@@H](CC(C)C)C(=O)N[C@@H](CC(C)C)C(=O)N[C@@H](Cc1ccc(OP(=O)(O)O)cc1)C(=O)O [compound 5, NBD-βA-LLLLpY] ({NBD-βAla}-LLLL[pY]-OH)", "viability at 2 h, 300 µM, %": 18.5}
